target: CB1 receptor (Rattus norvegicus, UniProt P20272); construct: from tissue; host or cells: rat whole brain, P2 membranes; test: CB1 assay: displacement of [3H]CP-55,940 from rat brain membrane preparation; format: binding; details: Table 3; mean ± SEM; 3-(alkoxy-1-naphthoyl)indoles; the same values as Ki in nM; read-out: CB1 (receptor affinity)
Sequence (P20272 whole entry): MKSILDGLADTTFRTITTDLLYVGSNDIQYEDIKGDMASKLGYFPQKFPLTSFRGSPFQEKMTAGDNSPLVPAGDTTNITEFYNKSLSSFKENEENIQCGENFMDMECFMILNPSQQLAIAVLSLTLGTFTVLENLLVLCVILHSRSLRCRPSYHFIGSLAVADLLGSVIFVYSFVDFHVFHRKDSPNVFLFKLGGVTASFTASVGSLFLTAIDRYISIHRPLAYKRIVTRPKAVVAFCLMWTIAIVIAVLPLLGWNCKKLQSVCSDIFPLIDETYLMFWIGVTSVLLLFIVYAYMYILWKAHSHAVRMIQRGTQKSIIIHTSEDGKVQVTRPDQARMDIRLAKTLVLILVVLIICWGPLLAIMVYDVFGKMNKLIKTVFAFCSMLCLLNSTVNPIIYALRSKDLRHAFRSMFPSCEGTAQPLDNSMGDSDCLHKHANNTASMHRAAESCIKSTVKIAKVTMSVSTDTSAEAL
RECORDED_METRIC: Ki
Dear colleague, please send the value followed by its unit.

Some compounds with known Ki results, for comparison:
- CCCn1cc(C(=O)c2cccc3cc(OC)ccc23)c2ccccc21: 2360 nM
- CCCn1cc(C(=O)c2c(OC)ccc3ccccc23)c2ccccc21: 3790 nM
- CCCCCn1c(C)c(C(=O)c2cccc3cc(OC)ccc23)c2ccccc21: 250 nM

State its Ki on CB1 receptor (Rattus norvegicus, UniProt P20272): CCCCCn1c(C)c(C(=O)c2c(OC)ccc3ccccc23)c2ccccc21
1380 nM

----------
biological target: CB2 receptor (Homo sapiens, UniProt P34972); assay: CB2 assay: displacement of [3H]CP-55,940 from cloned human CB2 receptor preparation (transfected HEK 293 cells); format: binding; parameters: expressed in transfected cells; conditions: Table 2; mean ± SEM; 3-(alkyl-1-naphthoyl)indoles; read-out: Ki CB2
Sequence (P34972 whole entry): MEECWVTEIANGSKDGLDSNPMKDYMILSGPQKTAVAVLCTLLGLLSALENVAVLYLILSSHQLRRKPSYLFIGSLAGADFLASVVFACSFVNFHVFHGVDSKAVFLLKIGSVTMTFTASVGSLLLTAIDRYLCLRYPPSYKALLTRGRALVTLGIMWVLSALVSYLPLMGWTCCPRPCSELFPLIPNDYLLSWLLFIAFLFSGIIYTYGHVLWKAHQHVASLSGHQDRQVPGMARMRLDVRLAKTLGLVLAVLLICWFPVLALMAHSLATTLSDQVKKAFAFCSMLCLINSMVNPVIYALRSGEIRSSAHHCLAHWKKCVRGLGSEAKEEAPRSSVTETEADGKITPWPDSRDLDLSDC
Some compounds, each annotated with its measured pKi.
Lab note — pKi values are minus log10 of concentrations in M.

• CCCCCn1cc(C(=O)c2ccc(C)c3ccccc23)c2ccccc21 = 8.92
• CCCc1ccc(C(=O)c2cn(CCC)c3ccccc23)c2ccccc12 = 8.02
• CCCCCn1c(C)c(C(=O)c2cccc3ccc(CC)cc23)c2ccccc21 = 8.25

Then there is this compound:
GET /values?readout=pKi&item= CCCCCn1cc(C(=O)c2ccc(CCC)c3ccccc23)c2ccccc21
8.96

----------
target: CB1 receptor (Rattus norvegicus); construct: from tissue; host or cells: rat whole brain, P2 membranes; assay: CB1 assay: displacement of [3H]CP-55,940 from rat brain membrane preparation; format: binding; conditions: rat brain membranes; read-out: Ki at CB1 receptor
RECORDED_METRIC: pKi
Lab note — pKi values are minus log10 of concentrations in M.

* CCCn1cc(C(=O)c2ccc(OCC)c3ccccc23)c2ccccc21 | 6.66
* CCCn1cc(C(=O)c2cccc3ccc(CC)cc23)c2ccccc21 | 6.47
* CCCCCn1cc(C(=O)c2ccc(CCCC)c3ccccc23)c2ccccc21 | 7.85
* CCCCCn1cc(C(=O)c2ccc(CC)c3ccccc23)c2ccccc21 | 9.34
* CCCCCn1cc(C(=O)c2c(OC)ccc3ccccc23)c2ccccc21 | 6.42

GET /values?readout=pKi&item= CCCn1c(C)c(C(=O)c2ccc(OCC)c3ccccc23)c2ccccc21
6.12

GET /values?readout=pKi&item= CCCCc1ccc(C(=O)c2c(C)n(CCC)c3ccccc23)c2ccccc12
6.83

GET /values?readout=pKi&item= CCCCCn1cc(C(=O)c2cccc3ccc(OC)cc23)c2ccccc21
8.18

GET /values?readout=pKi&item= CCCCCn1cc(C(=O)c2ccc(OCC)c3ccccc23)c2ccccc21
8.34

GET /values?readout=pKi&item= CCCCCn1c(C)c(C(=O)c2ccc(CCCC)c3ccccc23)c2ccccc21
7.38

GET /values?readout=pKi&item= CCCCCn1cc(C(=O)c2cccc3cc(OC)ccc23)c2ccccc21
7.36

----------
Some compounds, each annotated with its measured Ratio CB17CB2.
target: UniProtKB P34972; assay: CB2 assay: displacement of [3H]CP-55,940 from cloned human CB2 receptor preparation (transfected HEK 293 cells); type: binding; design: expressed in transfected cells; details: Table 2; ratio of Ki values
// keep it numeric: no unit symbol after the value

Some compounds with known Ratio CB17CB2 results, for comparison:
* CCCCCn1cc(C(=O)c2ccc(CCC)c3ccccc23)c2ccccc21 [JWH-182, 1-Pentyl-3-(4-propyl-1-naphthoyl)indole] | 0.6
* CCCn1c(C)c(C(=O)c2ccc(CC)c3ccccc23)c2ccccc21 [JWH-211] | 5.8
* CCCCCn1c(C)c(C(=O)c2ccc(CC)c3ccccc23)c2ccccc21 [JWH-213] | 3.6

GET /values?readout=Ratio CB17CB2&item= CCCCCn1c(C)c(C(=O)c2cccc3ccc(CC)cc23)c2ccccc21 [JWH-262]
5.0

GET /values?readout=Ratio CB17CB2&item= CCCCCn1c(C)c(C(=O)c2ccc(CCCC)c3ccccc23)c2ccccc21 [JWH-242]
6.5

----------
molecular target: CB2 receptor (Homo sapiens, UniProt P34972); test: CB2 assay: displacement of [3H]CP-55,940 from cloned human CB2 receptor preparation (transfected HEK 293 cells); assay type: binding; set-up: expressed in transfected cells; details: cloned human CB2; read-out: Ki at CB2 receptor
Threshold 50 nM: Ki strictly smaller gives t, otherwise f.

Reference set, count: 3
* CCCCCn1cc(C(=O)c2cccc3ccc(CC)cc23)c2ccccc21 | t
* CCCCCn1cc(C(=O)c2cccc3ccc(OC)cc23)c2ccccc21 | t
* CCCn1c(C)c(C(=O)c2cccc3cc(OC)ccc23)c2ccccc21 | t

In plain terms, does CCCCCn1c(C)c(C(=O)c2cccc3ccc(OC)cc23)c2ccccc21 come in under 50 nM for Ki?
t

In plain terms, does CCCn1c(C)c(C(=O)c2cccc3ccc(CC)cc23)c2ccccc21 come in under 50 nM for Ki?
f

In plain terms, does CCCCCn1c(C)c(C(=O)c2ccc(CCCC)c3ccccc23)c2ccccc21 come in under 50 nM for Ki?
t

----------
molecular target: CB2 receptor (Homo sapiens, UniProt P34972); experiment: CB2 assay: displacement of [3H]CP-55,940 from cloned human CB2 receptor preparation (transfected HEK 293 cells); format: binding; set-up: expressed in transfected cells; conditions: Table 2; ratio of Ki values
Threshold 3: Ratio CB17CB2 strictly smaller gives satisfied, otherwise not satisfied.

• CCCCCn1cc(C(=O)c2cccc3ccccc23)c2ccccc21 = not satisfied

In plain terms, does CCCn1cc(C(=O)c2cccc3ccc(C)cc23)c2ccccc21 come in under 3 for Ratio CB17CB2?
satisfied

In plain terms, does CCCn1c(C)c(C(=O)c2cccc3ccc(CC)cc23)c2ccccc21 come in under 3 for Ratio CB17CB2?
not satisfied

In plain terms, does CCCCCn1c(C)c(C(=O)c2cccc3ccc(C)cc23)c2ccccc21 come in under 3 for Ratio CB17CB2?
not satisfied

In plain terms, does CCCCCn1cc(C(=O)c2cccc3ccc(CC)cc23)c2ccccc21 come in under 3 for Ratio CB17CB2?
satisfied

In plain terms, does CCCc1ccc(C(=O)c2c(C)n(CCC)c3ccccc23)c2ccccc12 come in under 3 for Ratio CB17CB2?
not satisfied

----------
target: CB2 receptor (Homo sapiens, UniProt P34972); experiment: CB2 assay: displacement of [3H]CP-55,940 from cloned human CB2 receptor preparation (transfected HEK 293 cells); type: binding; set-up: expressed in transfected cells; details: CB2 over CB1 affinity
RECORDED_METRIC: selectivity for the CB2 receptor (fold)
Report the figure in fold without appending any unit label.

Some compounds with known selectivity for the CB2 receptor results, for comparison:
* CCCn1cc(C(=O)c2ccc(C)c3ccccc23)c2ccccc21 [JWH-120, 1-Propyl-3-(4-methyl-1-naphthoyl)indole] | 173
* CCCCCn1cc(C(=O)c2c(OC)ccc3ccccc23)c2ccccc21 [JWH-267, 1-Pentyl-3-(2-methoxy-1-naphthoyl)indole] | 53

Then there is this compound:
State its selectivity for the CB2 receptor on CB2 receptor (Homo sapiens, UniProt P34972): CCC(C)(C)c1ccc2c(c1)OC(C)(C)[C@@H]1CC=C(CO)C[C@@H]21 [Compound 9b]
25

----------
molecular target: CB1 receptor (Rattus norvegicus, UniProt P20272); construct: from tissue; host or cells: rat whole brain, P2 membranes; assay: CB1 assay: displacement of [3H]CP-55,940 from rat brain membrane preparation; assay type: binding; settings: read-out: CB1 (receptor affinity); Table 3; mean ± SEM; 3-(alkoxy-1-naphthoyl)indoles; the same values as Ki in nM
RECORDED_METRIC: Ki

• CCCn1c(C)c(C(=O)c2cccc3cc(OC)ccc23)c2ccccc21 = > 10000 nM

Then there is this compound:
GET /values?readout=Ki&item= CCCn1c(C)c(C(=O)c2c(OC)ccc3ccccc23)c2ccccc21
> 10000 nM

----------
target: CB2 receptor (Homo sapiens, UniProt P34972); experiment: CB2 assay: displacement of [3H]CP-55,940 from cloned human CB2 receptor preparation (transfected HEK 293 cells); type: binding; parameters: expressed in transfected cells; details: Table 2; mean ± SEM; 3-(alkyl-1-naphthoyl)indoles; read-out: Ki CB2
Some molecules, each annotated with its measured Ki.
Report the figure in pM without appending any unit label.

GET /values?readout=Ki&item= CCCCCn1c(C)c(C(=O)c2ccc(C)c3ccccc23)c2ccccc21
730

GET /values?readout=Ki&item= CCCCCn1c(C)c(C(=O)c2ccc(CC)c3ccccc23)c2ccccc21
420

GET /values?readout=Ki&item= CCCn1cc(C(=O)c2ccc(CC)c3ccccc23)c2ccccc21
10000

GET /values?readout=Ki&item= CCCc1ccc(C(=O)c2c(C)n(CCC)c3ccccc23)c2ccccc12
12000

GET /values?readout=Ki&item= CCCCCn1cc(C(=O)c2ccc(CC)c3ccccc23)c2ccccc21
690
